Assay: Confirmatory Assay for General miRNAs Modulators and/or Inhibitors/Activators of miR-21: second round cherrypicks
Conditions: HeLa miR-21 FLuc reporter, luciferase luminescence, 48 h; series mostly up to 38.3 µM
Source text: MLPCN Grant: 1 R21 NS059478-01 Assay Provider: Qihong Huang, The Wistar Institute NCGC Assay Overview: MicroRNAs (miRNAs) are endogenously encoded small (~20-25 nucleotides), nonprotein-coding RNAs that are involved in post-transcriptional repression of target messenger RNAs (mRNAs) (Le and Hannon, 2004). […]
Results filed as inconclusive are left out. Activity calls are given as the source filed them. The call rests on the fitted dose curve; in most records, active means well fitted inhibition curve with a large enough effect; inconclusive means small, poorly fitted or top-dose-only effect; inactive means flat fitted curve, though single readings scatter.
Output constraint: value belongs to active, inactive

Cc1cc(C)c2c(N)c(C(=O)Nc3ccccc3C(F)(F)F)sc2n1 = active
CCC(C)NC(=O)CCCn1c(=O)c2cccn2c2ccccc21 (configuration not stated) = inactive
COc1ccc(Nc2nc(C)c3ccccc3n2)cc1 = active
C/C(=N/NC(=O)c1ccccc1)c1ccc(NC(=O)C(F)(F)F)cc1 = inactive
Cc1ccc(-c2cc(C(=O)NCC3CCCO3)no2)cc1 (configuration not stated) = active
Cc1ccc(C(=O)Nc2ccc3c(c2)ncn3C)cc1 = active

Continue with the compound presented below.
Look up the recorded call for CCOC(=O)c1cccc(NC(=O)c2cc(CN3CCCC3)on2)c1 in this test.
active
